biological target: PASK (Homo sapiens (Human), UniProt Q96RG2); assay: PAS Kinase FRET Assay; format: biochemical; conditions: TR-FRET, Ulight-peptide substrate; read-out: IC50 Kinase Domain
Sequence (Q96RG2 999-1251): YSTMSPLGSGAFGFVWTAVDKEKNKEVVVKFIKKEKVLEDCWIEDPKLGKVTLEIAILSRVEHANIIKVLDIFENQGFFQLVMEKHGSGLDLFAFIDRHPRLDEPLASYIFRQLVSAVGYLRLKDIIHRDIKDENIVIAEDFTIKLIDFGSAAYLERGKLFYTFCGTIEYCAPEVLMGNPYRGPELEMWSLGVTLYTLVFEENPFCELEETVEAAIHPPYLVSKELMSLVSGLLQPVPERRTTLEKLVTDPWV
pIC50: −log10 of the molar value.
reportedMetric: pIC50

Illustrative cases are given below, each with its answer.
querySmiles | pIC50
O=C(O)c1ccc2nc(-c3ccccc3)c(N3CCS(=O)(=O)CC3)nc2c1 | ≤ 5.00
O=C(O)c1ccc2nc(-c3ccccc3)c(-n3ccc4ccccc43)nc2c1 | ≥ 5.00
CC(C)N(C)c1nc2cc(C(=O)O)ccc2nc1-c1cccs1 | ≥ 5.00
C[C@H]1CN(c2ccccn2)CCN1c1nc2cc(C(=O)O)ccc2nc1-c1ccc(F)cc1 | ≥ 5.00

# input for lookup
In: What measured pIC50 goes with O=C1CN(c2nc3cc(C(=O)O)ccc3nc2-c2ccc(F)cc2)CCN1 ?
Out: ≥ 5.00

###

# IC50 annotations
molecular target: PASK (UniProt # Q96RG2; human recombinant N-terminal GST tagged construct, residues 879-1323) (Homo sapiens (Human), UniProt Q96RG2); assay: PASK ATP Radiochemical Assay; details: 33P-ATP radiochemical, Myelin Basic Protein substrate; read-out: IC50 Kinase Domain
Sequence (Q96RG2 879-1323, change not shown): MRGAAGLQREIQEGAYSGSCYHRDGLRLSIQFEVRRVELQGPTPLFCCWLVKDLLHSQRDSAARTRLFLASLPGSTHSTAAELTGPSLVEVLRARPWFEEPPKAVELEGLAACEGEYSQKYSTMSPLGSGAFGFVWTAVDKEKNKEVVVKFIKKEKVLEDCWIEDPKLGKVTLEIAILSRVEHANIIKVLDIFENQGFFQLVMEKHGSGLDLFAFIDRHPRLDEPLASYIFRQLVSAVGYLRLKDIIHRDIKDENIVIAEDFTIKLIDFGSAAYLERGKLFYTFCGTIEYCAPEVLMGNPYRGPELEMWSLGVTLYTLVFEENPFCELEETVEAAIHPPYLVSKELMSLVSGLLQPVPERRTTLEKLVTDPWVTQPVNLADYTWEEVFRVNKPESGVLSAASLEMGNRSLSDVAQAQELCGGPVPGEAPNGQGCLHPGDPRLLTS

Illustrative cases are given below, each with its answer.
molecule | IC50
O=C(O)c1ccc2nc(-c3ccccc3)c(N3CCN(c4ccc5ccccc5n4)CC3)nc2c1 [Example 21] | < 10 µM
O=C(O)c1ccc2nc(-c3ccccc3)c(N3CCCCCC3)nc2c1 [Example 14] | < 10 µM

In: What measured IC50 goes with O=C(O)c1ccc2nc(-c3ccccc3)c(N3CCN(c4ccc(Cl)cc4)CC3)nc2c1 [Example 8] ?
Out: < 10 µM

In: What measured IC50 goes with COc1ccc(N2CCN(c3nc4cc(C(=O)O)ccc4nc3-c3ccccc3)CC2)cc1 [Example 9] ?
Out: < 10 µM

In: What measured IC50 goes with COCC1CCCN(c2nc3cc(C(=O)O)ccc3nc2-c2ccc(F)cc2)C1 (stereo not drawn) [Example 78] ?
Out: < 10 µM

In: What measured IC50 goes with O=C(O)c1ccc2nc(-c3ccccc3)c(N3CCN(c4ccccc4)CC3)nc2c1 [Example 6] ?
Out: < 10 µM

###

biological target: PASK (UniProt # Q96RG2; human recombinant N-terminal GST tagged construct, residues 879-1323) (Homo sapiens (Human), UniProt Q96RG2); assay: PASK ATP Radiochemical Assay; conditions: 33P-ATP radiochemical, Myelin Basic Protein substrate; read-out: IC50 Kinase Domain
reportedMetric: IC50

querySmiles | IC50
CC(C)N(C)c1nc2cc(C(=O)O)ccc2nc1-c1ccc(F)cc1 | < 10 µM
O=C(O)c1ccc2nc(N3CCC(c4ccc(C(F)(F)F)cc4)CC3)c(-c3ccc(F)cc3)nc2c1 | > 10 µM
O=C(O)c1ccc2nc(-c3ccccc3)c(N3CCN(c4ccc(C(F)(F)F)cc4)CC3)nc2c1 | < 10 µM
O=C(O)c1ccc2nc(-c3ccccc3)c(N3CCCCC3)nc2c1 | < 10 µM

In: What measured IC50 goes with CC(C)N(C)c1nc2cc(C(=O)O)ccc2nc1-c1ccc2[nH]ccc2c1 ?
Out: < 10 µM

###

# pIC50 annotations
target: PASK (UniProt # Q96RG2; human recombinant N-terminal GST tagged construct, residues 879-1323) (Homo sapiens (Human), UniProt Q96RG2); experiment: PASK ATP Radiochemical Assay; conditions: 33P-ATP radiochemical, Myelin Basic Protein substrate; read-out: IC50 Kinase Domain
pIC50: −log10 of the molar value.

Illustrative cases are given below, each with its answer.
querySmiles | pIC50
C[C@H]1CCCN1c1nc2cc(C(=O)O)ccc2nc1-c1ccc2c(c1)OCO2 | > 5.00
COc1ccc2c(c1)CCCN2c1nc2cc(C(=O)O)ccc2nc1-c1ccccc1 | > 5.00

# input for lookup
In: What measured pIC50 goes with CN(c1nc2cc(C(=O)O)ccc2nc1-c1ccccc1)C1CC1 ?
Out: > 5.00

Hey, just so you know, these numbers are from patent US10781185B2.
